Test system: pembrolizumab
Assay: Viscosity of pembrolizumab test formulations (mVROC viscometer)
Format: physicochemical
Conditions: 10 mM histidine buffer, 200 mg/mL pembrolizumab, 0.2 M excipient, pH 5.5
Structures can show the parent of a compound that is named as a salt.
Items are presented alongside their recorded Viscosity Average.

Compound: COCCOCCN(C(=O)COCCOC)[C@@H](Cc1c[nH]cn1)C(=O)O
Viscosity Average (mPa-s): 19.46
//
Compound: N[C@@H](Cc1c[nH]cn1)C(=O)O [Histidine, reference compound]
Viscosity Average (mPa-s): 35.56
//
Compound: N=C(N)NCCC[C@H](N)C(=O)O [Arginine, reference compound]
Viscosity Average (mPa-s): 30.40
//
Compound: COCCOCCOCCOCC(=O)N[C@@H](Cc1c[nH]cn1)C(=O)O
Viscosity Average (mPa-s): 23.44
//
Compound: COCCOCC(=O)N[C@@H](Cc1ccc(O)cc1)C(=O)O
Viscosity Average (mPa-s): 20.12
//
Compound: COCCOCCN[C@@H](CCCNC(=N)N)C(=O)O
Viscosity Average (mPa-s): 24.68
//
Compound: COCCOCCOCCOCCN[C@@H](Cc1c[nH]cn1)C(=O)O
Viscosity Average (mPa-s): 22.65
//
Compound: COCCOCC(=O)N[C@@H](CCCNC(=N)N)C(=O)O [Example 15, dihydrochloride]
Viscosity Average (mPa-s): 18.67
//
Compound: COCCOCCOCC(=O)N[C@@H](CCCNC(=N)N)C(=O)O
Viscosity Average (mPa-s): 22.15

###

System: pembrolizumab
Assay: Viscosity of pembrolizumab test formulations (mVROC viscometer)
Assay type: physicochemical
Conditions: 10 mM histidine buffer, 200 mg/mL pembrolizumab, 0.2 M excipient, pH 5.5
Marks after values point to notes of the source that are not given here.
Items are presented alongside their recorded Viscosity 2.

Compound: COCCOCC(=O)N[C@@H](Cc1c[nH]cn1)C(=O)O [Example 13, (2-(2-methoxyethoxy)acetyl)-L-histidine]
Viscosity 2: 20.09 mPa-s
//
Compound: O=C(O)[C@H](Cc1c[nH]cn1)N(CCOCCO)CCOCCO [Example 21]
Viscosity 2: 23.16 mPa-s
//
Compound: COCCOCC(=O)N[C@@H](Cc1ccccc1)C(=O)O [Example 22]
Viscosity 2: 17.63 mPa-s
//
Compound: N=C(N)NCCC[C@H](N)C(=O)O [Arginine, reference compound]
Viscosity 2: 30.55 mPa-s
//
Compound: COCCOCCN(CCOCCOC)[C@@H](CCCNC(=N)N)C(=O)O [Example 5]
Viscosity 2: 18.37* *Ave- rage of 4 values mPa-s
//
Compound: COCCOCCOCCOCC(=O)N[C@@H](CCCNC(=N)N)C(=O)O [Example 17]
Viscosity 2: 22.82 mPa-s
//
Compound: COCCOCCOCC(=O)N[C@@H](CCCNC(=N)N)C(=O)O [Example 2]
Viscosity 2: 22.24 mPa-s
//
Compound: COCCOCCOCCN[C@@H](Cc1c[nH]cn1)C(=O)O [Example 19]
Viscosity 2: 26.83 mPa-s
//
Compound: COCCOCCN(CCOCCOC)[C@@H](CCCCN)C(=O)O [Example 11]
Viscosity 2: 21.50 mPa-s
//
Compound: COCCOCCOCCOCC(=O)N[C@@H](Cc1c[nH]cn1)C(=O)O [Example 16]
Viscosity 2: 23.54 mPa-s
//
Compound: COCCOCC(=O)N[C@@H](Cc1ccc(O)cc1)C(=O)O [Example 23, (2-(2-methoxyethoxy)acetyl)-L-tyrosine]
Viscosity 2: 20.09 mPa-s
//
Compound: COCCOCCN[C@@H](Cc1c[nH]cn1)C(=O)O [Example 12]
Viscosity 2: 22.33 mPa-s
//
Compound: COCCOCCN(CCOCCOC)[C@@H](Cc1c[nH]cn1)C(=O)O [Example 6]
Viscosity 2: 18.10* *Ave- rage of 3 values mPa-s
//
Compound: N=C(N)NCCC[C@@H](C(=O)O)N(CCOCCO)CCOCCO [Example 20]
Viscosity 2: 25.42 mPa-s
//
Compound: COCCOCCN(C(=O)COCCOC)[C@@H](Cc1c[nH]cn1)C(=O)O [Example 4]
Viscosity 2: 19.28 mPa-s
//
Compound: N[C@@H](Cc1c[nH]cn1)C(=O)O [Histidine, reference compound]
Viscosity 2: 35.32 mPa-s
//
Compound: COCCOCCN[C@@H](CCCNC(=N)N)C(=O)O [Example 14]
Viscosity 2: 24.76 mPa-s
//
Compound: COCCOCCOCCOCCN[C@@H](Cc1c[nH]cn1)C(=O)O [Example 18]
Viscosity 2: 22.47 mPa-s
//
Compound: COCCOCCN(C(=O)COCCOC)[C@@H](CCCNC(=N)N)C(=O)O [Example 3]
Viscosity 2: 21.18 mPa-s
//
Compound: COCCOCCOCC(=O)N[C@@H](Cc1c[nH]cn1)C(=O)O [Example 1]
Viscosity 2: 23.27 mPa-s
//
Compound: COCCOCC(=O)N[C@@H](CCCCN)C(=O)O [Example 10]
Viscosity 2: 26.35 mPa-s

###

Items are presented alongside their recorded Viscosity 1.
Tested on: pembrolizumab
Experiment: Viscosity of pembrolizumab test formulations (mVROC viscometer)
Format: physicochemical
Settings: 10 mM histidine buffer, 200 mg/mL pembrolizumab, 0.2 M excipient, pH 5.5
Where a name gives a salt, the structure may show the parent alone.
Assay metric: Viscosity 1 (mPa-s)

Compound: COCCOCC(=O)N[C@@H](Cc1ccccc1)C(=O)O
Assay metric: Viscosity 1
Observed result: 17.77
--
Compound: COCCOCCN[C@@H](CCCNC(=N)N)C(=O)O
Assay metric: Viscosity 1
Observed result: 24.59
--
Compound: N[C@@H](Cc1c[nH]cn1)C(=O)O [Histidine, reference compound]
Assay metric: Viscosity 1
Observed result: 35.79
--
Compound: COCCOCCOCC(=O)N[C@@H](CCCNC(=N)N)C(=O)O
Assay metric: Viscosity 1
Observed result: 22.05
--
Compound: COCCOCC(=O)N[C@@H](CCCCN)C(=O)O
Assay metric: Viscosity 1
Observed result: 26.39
--
Compound: COCCOCCN(CCOCCOC)[C@@H](CCCCN)C(=O)O
Assay metric: Viscosity 1
Observed result: 21.36
--
Compound: COCCOCCOCCOCC(=O)N[C@@H](Cc1c[nH]cn1)C(=O)O
Assay metric: Viscosity 1
Observed result: 23.33
--
Compound: COCCOCC(=O)N[C@@H](Cc1ccc(O)cc1)C(=O)O
Assay metric: Viscosity 1
Observed result: 20.15
--
Compound: O=C(O)[C@H](Cc1c[nH]cn1)N(CCOCCO)CCOCCO
Assay metric: Viscosity 1
Observed result: 23.19
--
Compound: COCCOCCOCC(=O)N[C@@H](Cc1c[nH]cn1)C(=O)O
Assay metric: Viscosity 1
Observed result: 23.12
--
Compound: COCCOCC(=O)N[C@@H](CCCNC(=N)N)C(=O)O [Example 15, dihydrochloride]
Assay metric: Viscosity 1
Observed result: 18.67
--
Compound: COCCOCCN(C(=O)COCCOC)[C@@H](Cc1c[nH]cn1)C(=O)O
Assay metric: Viscosity 1
Observed result: 19.64
--
Compound: N=C(N)NCCC[C@@H](C(=O)O)N(CCOCCO)CCOCCO
Assay metric: Viscosity 1
Observed result: 25.28
--
Compound: N=C(N)NCCC[C@H](N)C(=O)O [Arginine, reference compound]
Assay metric: Viscosity 1
Observed result: 30.25
--
Compound: COCCOCCOCCOCC(=O)N[C@@H](CCCNC(=N)N)C(=O)O
Assay metric: Viscosity 1
Observed result: 23.09
--
Compound: COCCOCCOCCN[C@@H](Cc1c[nH]cn1)C(=O)O
Assay metric: Viscosity 1
Observed result: 26.58
--
Compound: COCCOCC(=O)N[C@@H](Cc1c[nH]cn1)C(=O)O
Assay metric: Viscosity 1
Observed result: 20.05
